Header: pIC50 / Histone deacetylase 2 (Homo sapiens) / multiple publications
When answering, recall that pIC50 equals minus log10 of the concentration in mol/L, and write that number alone.

The compound CN1C[C@H](C(=O)Nc2ccc(Cl)cc2)[C@@H](c2ccc(/C=C/C(=O)Nc3ccccc3N)cc2F)C1 (racemic) , tested on Histone deacetylase 2 (Homo sapiens), showed pIC50 of 6.66

Kindly note: Histone deacetylase 2 (Homo sapiens), `O=C1NC[C@H](c2ccccc2)[C@H]1C(=O)N[C@@H](CCCCCS)C(=O)Nc1ccccc1` , pIC50 value reported: 5.65

The compound `O=C(CCCCC(=O)Nc1ccc2c(c1)/C(=C/c1ccc[nH]1)C(=O)N2)NO` , tested on Histone deacetylase 2 (Homo sapiens), showed pIC50 of 7.69

Let me check: `O=CN(O)CCCCCCCC(=O)Nc1ccc2ccccc2c1` , system Histone deacetylase 2 (Homo sapiens), measured pIC50 is 6.05

Simply: `O=C(CCCCCCN1C(=O)C2(OCCO2)c2cccc(Cl)c21)NO` , Histone deacetylase 2 (Homo sapiens), pIC50 = 7.52

# lookup: `COc1ccc(C(=O)c2ccc3c(ccn3S(=O)(=O)c3cccc(/C=C/C(=O)NO)c3)c2)cc1OC` on Histone deacetylase 2 (Homo sapiens), pIC50 = 5.67

Record for `O=C(NO)N/C=C/c1ccc(-c2ccccc2)cc1` under target or system Histone deacetylase 2 (Homo sapiens): pIC50 reported as 5.98
